// data source = ChEMBL document CHEMBL3784963

# Method Description: Cytotoxicity against human HGC27 cells assessed as growth inhibition after 72 hrs by MTT assay
# Assay type: functional, cell-based
# Assay Conditions: HGC-27, 72 h
pIC50: −log10 of the molar value.
Quantity Name: pIC50

> print(dat)
                                smiles.code  quantity.name  readout.number
1  CCOC(=O)[C@]1(C)CCC[C@@]2(C)[C@@H]3CC[C@@]4(C)C[C@]3(CC[C@@H]21)[C@H](CO)[C@H]4NC(=S)Nc1ccccc1Cl          pIC50            5.05
2  CCOC(=O)[C@]1(C)CCC[C@@]2(C)[C@@H]3CC[C@@]4(C)C[C@]3(CC[C@@H]21)[C@H](CO)[C@H]4NC(=S)Nc1ccccc1OC          pIC50            5.04
3  CCOC(=O)[C@]1(C)CCC[C@@]2(C)[C@@H]3CC[C@@]4(C)C[C@]3(CC[C@@H]21)C[C@H]4N          pIC50            5.59
4  CCOC(=O)[C@]1(C)CCC[C@@]2(C)[C@@H]3CC[C@@]4(C)C[C@]3(CC[C@@H]21)[C@H](CO)[C@H]4NC(=S)Nc1cccc([N+](=O)[O-])c1          pIC50            5.62
